B1: CFHR2 (parent)
chain: FVENGHSESSGQTHLEGDTVQIIC

variants of: B1; test: protein stability index of a GFP-peptide fusion (GPS, HEK-293T) (PSI 1-6); higher = more stable; conditions: c terminus: a fixed tail appended;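 note: lentivirally expressed fusions sorted by FACS into six bins by GFP to DsRed ratio, PSI derived from sequencing read proportions per bin multiplied by bin number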
Recorded protein stability index values for a group of variants are listed next.
A bare number is all that is needed in reply.

Here's what some known entries look like.
{"Mutant": "S10C", "protein stability index": 2}
{"Mutant": "H14T", "protein stability index": 3.08}

According to the records, this variant S10F displays protein stability index of 1.97

Sample I22Q ; protein stability index observed: 3.74

protein stability index in this record for C24F : 1.88

Form: variant = F1D ; protein stability index = 4.7

Kindly note the recorded protein stability index for S7Q , which is 3.04
